Where these numbers come from: patent US20240174690A1

Tested on: LOVO cells
Assay Info: LOVO CTG proliferation assay (120 h) (CRC, G13D)
Type: cell-based
Setup Conditions: Homo sapiens, CTG 120 h
Kindly supply the reported IC50 values for the records listed here.
Your answer should be a plain number; it is taken to be in nM.

# get_value(readout='IC50', item= C[C@H](Oc1cc(-c2cnn(C)n2)nc(-c2noc3c2CCC[C@@]32CCCc3sc(N)c(C#N)c32)n1)[C@@H]1C[C@@H](F)CN1C )
720

Next entry: C[C@H](Oc1cc(-n2cc(C3CC3)nn2)nc(-c2noc3c2CCC[C@@]32CCCc3sc(N)c(C#N)c32)n1)[C@@H]1CCCN1C
295

Lookup C[C@H](Oc1cc(N2CCN(C)C3(COC3)C2)nc(-c2noc3c2CCC[C@@]32CCCc3sc(N)c(C#N)c32)n1)[C@@H]1C[C@@H](F)CN1C
109

###

Test system: SAS cells
Assay Info: SAS CTG proliferation assay (120 h) (HNSCC, wt amplified)
Format: cell-based
Experimental: SAS CTG Proliferation Assay (120 h) (HNSCC, Wt Amplified) SAS cells (JCRB0260) are dispensed into 384-well plates, flat and clear bottom (Greiner, PNr. 781091) at a density of 300 cells per well in 60 μL DMEM:F12 (Gibco 31330-038)+10% Fetal Calf Serum (HyClone, PNr.: SH30084.03) and incubated at 37° C. in a CO2 incubator overnight. […] Plates are incubated for 120 h, and cell viability is measured using CellTiter-Glo luminescent cell viability reagent (Promega product code G7570). […]
Quantity Measured: IC50 (nM)
Write the answer as a number in nM, unit excluded.

Need IC50, item CNC(=O)c1cn(-c2cc(O[C@@H](C)[C@@H]3CCCN3C)nc(-c3noc4c3CCC[C@@]43CCCc4sc(N)c(C#N)c43)n2)nn1
889

Another compound to check: CO[C@@H]1C[C@@H]([C@H](C)Oc2cc(-c3ccn(C)n3)nc(-c3onc4c3CCC[C@@]43CCCc4sc(N)c(C#N)c43)n2)N(C)C1
24

Also C[C@H](Oc1cc(-c2cnsc2)nc(-c2onc3c2CCC[C@@]32CCCc3sc(N)c(C#N)c32)n1)[C@@H]1CCCN1C ?
109

Let us now turn to C[C@H](Oc1cc(N2CCN(C)C3(CC3)C2)nc(-c2onc3c2CCC[C@@]32CCCc3sc(N)c(C#N)c32)n1)[C@@H]1C[C@@H](F)CN1C
1200

Subsequent entry: C[C@H](Oc1cc(-n2cc3ccn([C@@H](C)c4ccccn4)c(=O)c3n2)nc(-c2noc3c2CCC[C@@]32CCCc3sc(N)c(C#N)c32)n1)[C@@H]1CCCN1C
20

Try this compound next: C[C@H](Oc1cc(N2CCN(C)C3(CC3)C2)nc(-c2noc3c2CCC[C@@]32CCCc3sc(N)c(C#N)c32)n1)[C@@H]1C[C@@H](F)CN1C
849

###

Tested on: LOVO cells
Assay Info: LOVO CTG proliferation assay (120 h) (CRC, G13D)
Type: cell-based
Setup Conditions: Homo sapiens, CTG 120 h
Quantity Measured: IC50 (nM)
Please give a number only; it is taken to be in nM.

What value of IC50 has been recorded for this entry: C[C@H](Oc1cc(-n2cncc3ccnc2-3)nc(-c2onc3c2CCC[C@@]32CCCc3sc(N)c(C#N)c32)n1)[C@@H]1CCCN1C
1350

Also, C[C@H](Oc1cc(-n2cnc3cccnc32)nc(-c2noc3c2CCC[C@@]32CCCc3sc(N)c(C#N)c32)n1)[C@@H]1CCCN1C please.
289

And what about the compound C[C@H](Oc1cc(-n2ccc(C(=O)N[C@H]3CCOC3)n2)nc(-c2onc3c2CCC[C@@]32CCCc3sc(N)c(C#N)c32)n1)[C@@H]1CCCN1C ?
8

###

I'd appreciate it if you could supply fraction unbound values for the items below.
Assay Info: Plasma protein binding assay (PPB), equilibrium dialysis, 10% FCS in PBS
Format: in vitro ADME
Setup Conditions: bovine, read-out: PPB 10% FCS (% fu)
Just the number, please, no unit attached.

Bench note: what fraction unbound did C[C@H](Oc1cc(-n2ccc(-c3cn([C@@H]4CCOC4)nn3)n2)nc(-c2noc3c2CCC[C@@]32CCCc3sc(N)c(C#N)c32)n1)[C@@H]1CCCN1C show?
0.02

Also C[C@H](Oc1cc(N2C[C@@H](N(C)C)[C@@H](F)C2)nc(-c2noc3c2CCC[C@@]32CCCc3sc(N)c(C#N)c32)n1)[C@@H]1CCCN1C ?
0.89

Moving on to the next molecule: C[C@H](Oc1cc(-c2cn[nH]c2)nc(-c2noc3c2CCC[C@@]32CCCc3sc(N)c(C#N)c32)n1)[C@@H]1CCCN1C
0.26

Follow-up item: C[C@@H]1CN(c2cc(O[C@@H](C)[C@@H]3CCCN3C)nc(-c3noc4c3CCC[C@@]43CCCc4sc(N)c(C#N)c43)n2)C[C@H](C)N1
0.57

Also, CO[C@@H]1C[C@@H]([C@H](C)Oc2cc(-c3cnn(C)n3)nc(-c3onc4c3CCC[C@@]43CCCc4sc(N)c(C#N)c43)n2)N(C)C1 please.
0.24

Now give it for C[C@H](Oc1cc(C2CCOCC2)nc(-c2noc3c2CCC[C@@]32CCCc3sc(N)c(C#N)c32)n1)[C@@H]1CCCN1C too.
0.61

###

System: KRAS G12C-dependent Ba/F3 cells
Assay Info: Ba/F3 proliferation assay, KRAS G12C
Assay type: cell-based
Setup Conditions: Mus musculus, BaF3, 72 h, AlamarBlue
Quantity Measured: IC50 (nM)
All answers are understood in nM, so give the number only.

Which IC50 is listed for C[C@H](Oc1cc(-n2ccnc2)nc(-c2onc3c2CCC[C@@]32CCCc3sc(N)c(C#N)c32)n1)[C@@H]1CCCN1C [I-20] ?
14

Param item: C[C@H](Oc1cc(-n2ccc(C(=O)NC3(C)COC3)n2)nc(-c2noc3c2CCC[C@@]32CCCc3sc(N)c(C#N)c32)n1)[C@@H]1CCCN1C [II-26]
5

Would you mind doing C[C@H](Oc1cc(N2CCNC3(CCC3)C2)nc(-c2noc3c2CCC[C@@]32CCCc3sc(N)c(C#N)c32)n1)[C@@H]1CCCN1C [II-40] as well?
381

Subsequent entry: C[C@H](Oc1cc(N2CC[C@@H](N(C)C)C2)nc(-c2noc3c2CCC[C@@]32CCCc3sc(N)c(C#N)c32)n1)[C@@H]1CCCN1C [II-47]
240

Subsequent entry: C[C@H](Oc1cc(-c2ccn(C3COC3)n2)nc(-c2noc3c2CCC[C@@]32CCCc3sc(N)c(C#N)c32)n1)[C@@H]1C[C@H](F)CN1C [II-83]
15

Lookup C[C@H](Oc1cc(N2CC[C@H](N(C)C)C2)nc(-c2noc3c2CCC[C@@]32CCCc3sc(N)c(C#N)c32)n1)[C@@H]1CCCN1C [II-49]
329

###

Assay Info: Solubility measurement (DMSO solution method), McIlvaine buffer pH 4.5 or 6.8
Type: physicochemical
Setup Conditions: aqueous buffer, kinetic from dmso stock; McIlvaine buffer pH 6.8; DMSO stock diluted to 250 μM; 24 h shaking at ambient temperature; read-out: solubility pH 6.8
Record form. Attribute: solubility at 24 h. Fill in for each entry.
Use µg/mL as the unit, but write only the number.

Give its solubility at 24 h value. Item: C[C@H](Oc1cc(-n2cc3ccn([C@@H]4CCOC4)c(=O)c3n2)nc(-c2noc3c2CCC[C@@]32CCCc3sc(N)c(C#N)c32)n1)[C@@H]1CCCN1C
65

Try this compound too: C[C@H](Oc1cc(N2Cc3cnn(C)c3C2)nc(-c2onc3c2CCC[C@@]32CCCc3sc(N)c(C#N)c32)n1)[C@@H]1CCCN1C
14

Thanks! And C[C@H](Oc1cc(-n2ccnn2)nc(-c2onc3c2CCC[C@@]32CCCc3sc(N)c(C#N)c32)n1)[C@@H]1CCCN1C ?
14

// repeat for C[C@H](Oc1cc(-n2ccc(C3(O)COC3)n2)nc(-c2noc3c2CCC[C@@]32CCCc3sc(N)c(C#N)c32)n1)[C@@H]1CCCN1C and report
103

Another compound: C[C@H](Oc1cc(-n2cc3ccn(C4CCOCC4)c(=O)c3n2)nc(-c2noc3c2CCC[C@@]32CCCc3sc(N)c(C#N)c32)n1)[C@@H]1CCCN1C
2

###

Assay Info: Metabolic (microsomal) stability assay, human liver microsomes (HLM)
Assay type: in vitro ADME
Setup Conditions: predicted clearance as percent of liver blood flow, 1 μM
Assignment: determine reported HLM QH for the given compounds.
Numbers only here, please. The scale is %.

Quick one: HLM QH of CC(C)N1CCCN(c2cc(-n3ccnc3)nc(-c3noc4c3CCC[C@@]43CCCc4sc(N)c(C#N)c43)n2)[C@@H](C)C1 [II-169] ?
39

Next record, please: C[C@H](Oc1cc(-c2ccn(C)n2)nc(-c2onc3c2CCC[C@@]32CCCc3sc(N)c(C#N)c32)n1)[C@@H]1CCCN1C [I-21]
44

Then this compound: C[C@H]1CN(C)CCCN1c1nc(-c2onc3c2CCC[C@@]32CCCc3sc(N)c(C#N)c32)cc(N2CCN(C)C3(CC3)C2)n1 [I-42]
42
